Test system: PC-3
METHOD DESCRIPTION: NCI tumour cell line growth inhibition, 48 h
The source made the active and inactive calls. No stated cut-off is given here; in the data, active = GI50 up to about 1.1 µM and inactive = higher.
Field 'call' accepts active, inactive

Assay result, entry O=c1oc2cccnc2n1CCCCN1CCN(c2ccccc2)CC1 — outcome? inactive

Assay result, entry COC[C@H]1C(=O)NCC(=O)N2N=CCC[C@H]2C(=O)N(O)[C@H](C)C(=O)O[C@@H](C(C)C)[C@H](NC(=O)[C@@](C)(O)[C@]2(O)CC[C@@H](CC(C)C)[C@H](C)O2)C(=O)N2NCCC[C@@H]2C(=O)N1O — outcome? active

Assay result, entry COC(Cc1cc(C(O)(c2ccc(C(C)(C)C)cc2)c2cc(CC(OC)(c3cc(C(OC)(c4ccc(C(C)(C)C)cc4)c4ccc(C(C)(C)C)cc4)c(C)cc3C)c3cc(C(OC)(c4ccc(C(C)(C)C)cc4)c4ccc(C(C)(C)C)cc4)c(C)cc3C)c(C)cc2C)c(C)cc1C)(c1cc(C(OC)(c2ccc(C(C)(C)C)cc2)c2ccc(C(C)(C)C)cc2)c(C)cc1C)c1cc(C(OC)(c2ccc(C(C)(C)C)cc2)c2ccc(C(C)(C)C)cc2)c(C)cc1C — outcome? inactive

Assay result, entry CC1(C)C2CCC1(C)C(NC(=O)CCN1CCOCC1)C2 (stereo unspecified) — outcome? inactive

Assay result, entry CC(O)CC(=O)CO[C@H]1[C@H](O)[C@@H](O)[C@@H](O)[C@@H]2NC(=O)c3c(cc4c(c3O)OCO4)[C@H]21 (stereo partly specified) — outcome? active

Assay result, entry C=[N+](CNC(=O)CNC(=O)C(Cc1ccc([N+](=O)[O-])cc1)NC(=O)OC(C)(C)C)C(=O)CNC(=O)C(Cc1ccc([N+](=O)[O-])cc1)NC(=O)OC(C)(C)C (stereo unspecified) — outcome? inactive

Assay result, entry O=C(/C=C/c1ccc(-c2ccccc2)cc1)NCc1ccc(C(=O)NCCc2ccccc2)cc1 — outcome? inactive

Assay result, entry Cc1cccc(/C=C2\CCCCCC2=O)c1 — outcome? inactive

Assay result, entry Cc1cc2c(nn1)CCc1c-2no[n+]1[O-] — outcome? inactive

---

System: HOP-92
METHOD DESCRIPTION: NCI tumour cell line growth inhibition, 48 h
The source made the active and inactive calls. No stated cut-off is given here; in the data, active = GI50 up to about 1.1 µM and inactive = higher.
Measured GI50, listed per entry for reference.

Example molecules with recorded GI50:
Cc1cc2c(C)n(Cc3ccccc3Cl)nc2c(C(=O)O)c1C    > 100 µM (inactive)
c1ccc(C2=NOC3C4CCC(C4)C23)cc1 (stereo not given)    > 100 µM (inactive)
O=C1OCCC12CN(Cc1ccccc1)N=N2 (stereo not given)    > 100 µM (inactive)

Please give the documented GI50 of COc1cc(/C=C2\C[C@H]3[C@@H]4CC=C5C[C@@H](N6CCCC6)CC[C@]5(C)[C@H]4CC[C@]3(C)[C@H]2OC(C)=O)cc(OC)c1OC 10.3 µM (inactive)

Please give the documented GI50 of O=C(CN1C(=O)CC(c2ccccc2)(c2ccccc2)C1=O)N1CCN(CCO)CC1 > 100 µM (inactive)

---

Tested on: UACC-257
METHOD DESCRIPTION: NCI tumour cell line growth inhibition, 48 h
Activity calls are given as the source filed them. Cut-off read from the data, not from the text of the source: active = GI50 up to about 1.1 µM and inactive = higher.
Field 'call' accepts 1 = active, 0 = inactive

Worked cases, answers included:
Cc1cc2c(nn1)CCc1c-2no[n+]1[O-]    0
CCS[C@H]1NC(=O)C1[C@H](C)O[Si](C)(C)C(C)(C)C (stereo not given in full)    0
COC[C@H]1C(=O)NCC(=O)N2N=CCC[C@H]2C(=O)N(O)[C@H](C)C(=O)O[C@@H](C(C)C)[C@H](NC(=O)[C@@](C)(O)[C@]2(O)CC[C@@H](CC(C)C)[C@H](C)O2)C(=O)N2NCCC[C@@H]2C(=O)N1O    1
O=C1N/C(=N\N=C\c2ccccc2)C(c2ccccc2)O1 (stereo not given)    0
CC(O)CC(=O)CO[C@H]1[C@H](O)[C@@H](O)[C@@H](O)[C@@H]2NC(=O)c3c(cc4c(c3O)OCO4)[C@H]21 (stereo not given in full)    1
CNC(=O)NCCN1N=C(C)/C(=C\c2ccccc2)CC1=O    0

Assay result, entry O=c1cc(-c2ccccc2)oc2cc(OCCCCCCCCCCOc3ccc4c(=O)cc(-c5ccccc5)oc4c3)ccc12 — outcome? 0

Assay result, entry COc1ccc(/C=C/C(=O)C(C)C)cc1 — outcome? 0

Assay result, entry Fc1cc2nc3n(c2cc1F)C(c1c(F)cccc1F)SC3 (stereo not given) — outcome? 0

Assay result, entry O=c1[nH]c(Nc2nc3ccccc3[nH]2)nc(O)c1-c1ccccc1 — outcome? 0

Assay result, entry COc1cc(C2c3cc4c(cc3OC(NNC(N)=O)C2C)OCO4)cc(OC)c1O (stereo not given) — outcome? 0

Assay result, entry CN(C)/C=N\c1ccn(CCO)c(=O)n1 — outcome? 0

Assay result, entry CC(=O)C(C(c1ccccc1)N1CCOCC1)N1CCOCC1 (stereo not given) — outcome? 0
